target: UV-DDB (DDB1-DDB2 heterodimer) (UniProt Q16531;Q92466 1-1140;1-427); experiment: EMSA; 1.5 mM Mg2+; EMSA: 8 nM DNA, 20 mM HEPES pH 7.5, 150 mM NaCl, 2 mM DTT (5 mM for SMUG1), 5% glycerol, 0.5 mg/ml BSA (0.5 mg/l [sic] for SMUG1), +/- 1.5 mM MgCl2, RT 20 min (30 min for displacement); 5% native gel, 1/2x TBE, 4 C; conditions: protein: recombinant; tags: DDB1-6xHis; DDB2-Flag; copies: 1;1; label: 3'-6FAM on top strand; blunt
Sequence (Q16531 whole entry, chain 1 of 2): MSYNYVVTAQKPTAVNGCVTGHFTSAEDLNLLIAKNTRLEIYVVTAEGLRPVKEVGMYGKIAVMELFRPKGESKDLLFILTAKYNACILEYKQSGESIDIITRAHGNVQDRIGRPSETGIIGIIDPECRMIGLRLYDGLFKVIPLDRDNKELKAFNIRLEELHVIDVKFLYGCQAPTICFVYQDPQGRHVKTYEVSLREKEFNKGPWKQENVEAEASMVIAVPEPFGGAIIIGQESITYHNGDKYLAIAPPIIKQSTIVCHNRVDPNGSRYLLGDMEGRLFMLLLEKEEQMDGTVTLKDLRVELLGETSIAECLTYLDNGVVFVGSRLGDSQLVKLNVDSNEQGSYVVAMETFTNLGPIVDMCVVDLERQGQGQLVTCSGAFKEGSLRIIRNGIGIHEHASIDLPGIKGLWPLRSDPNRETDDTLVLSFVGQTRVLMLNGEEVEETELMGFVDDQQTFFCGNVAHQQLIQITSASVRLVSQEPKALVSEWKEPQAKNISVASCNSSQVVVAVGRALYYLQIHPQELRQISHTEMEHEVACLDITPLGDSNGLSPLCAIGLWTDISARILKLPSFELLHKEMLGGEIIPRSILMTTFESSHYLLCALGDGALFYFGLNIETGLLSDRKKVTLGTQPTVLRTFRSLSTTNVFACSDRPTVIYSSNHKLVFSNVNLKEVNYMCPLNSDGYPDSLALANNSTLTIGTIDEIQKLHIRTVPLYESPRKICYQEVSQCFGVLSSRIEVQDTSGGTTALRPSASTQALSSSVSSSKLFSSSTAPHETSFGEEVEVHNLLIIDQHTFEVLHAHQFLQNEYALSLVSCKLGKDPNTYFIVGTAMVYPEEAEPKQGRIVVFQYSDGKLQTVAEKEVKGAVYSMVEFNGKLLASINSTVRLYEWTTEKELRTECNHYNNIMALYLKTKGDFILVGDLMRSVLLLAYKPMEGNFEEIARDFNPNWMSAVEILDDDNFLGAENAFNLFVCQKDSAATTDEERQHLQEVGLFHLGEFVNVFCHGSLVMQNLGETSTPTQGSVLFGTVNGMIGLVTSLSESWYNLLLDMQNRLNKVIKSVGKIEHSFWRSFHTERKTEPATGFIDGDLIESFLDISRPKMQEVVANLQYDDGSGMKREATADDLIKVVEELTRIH
Sequence (Q92466 whole entry, chain 2 of 2): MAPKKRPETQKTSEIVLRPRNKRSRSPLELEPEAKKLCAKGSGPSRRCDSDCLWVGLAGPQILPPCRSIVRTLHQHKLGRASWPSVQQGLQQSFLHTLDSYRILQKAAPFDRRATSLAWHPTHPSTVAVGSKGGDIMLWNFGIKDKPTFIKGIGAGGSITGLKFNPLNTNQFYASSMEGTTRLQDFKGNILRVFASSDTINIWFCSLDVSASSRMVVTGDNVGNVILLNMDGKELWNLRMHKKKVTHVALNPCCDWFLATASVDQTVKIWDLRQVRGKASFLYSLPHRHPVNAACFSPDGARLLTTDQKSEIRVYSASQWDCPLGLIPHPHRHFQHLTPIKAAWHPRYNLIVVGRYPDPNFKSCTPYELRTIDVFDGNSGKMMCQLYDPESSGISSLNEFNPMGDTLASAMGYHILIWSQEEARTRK

- binder: "dU:dA37 (dsDNA, dU at position 22 of top strand, opposite dA) DNA 1: CCGAGTCATTCCTGCAGCGAGUCCATGGGAGTCAAAT DNA 2: ATTTGACTCCCATGGACTCGCTGCAGGAATGACTCGG"
  Kd [nM]: 52
- binder: "UD37 (undamaged) (dsDNA) DNA 1: CCGAGTCATTCCTGCAGCGAGTCCATGGGAGTCAAAT DNA 2: ATTTGACTCCCATGGACTCGCTGCAGGAATGACTCGG"
  Kd [nM]: 125
- binder: "5-hmdU:dA37 (dsDNA, 5-hydroxymethyl-dU (X, written U) at position 22 of top strand, opposite dA) DNA 1: CCGAGTCATTCCTGCAGCGAGUCCATGGGAGTCAAAT DNA 2: ATTTGACTCCCATGGACTCGCTGCAGGAATGACTCGG"
  Kd [nM]: 48
